Values were extracted from the supplement of paper PMC6555819.

# System: RARb:RXRa (NR concentration 270 nM, RXRa partner concentration 90 nM)
# assay text: PBM binding z-score (relative to random genomic background probes); higher = stronger binding; sequences stand for … in GC…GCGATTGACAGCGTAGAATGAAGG
Hi, to clarify the labels: condition met covers PBM binding z-score from 1 upward, condition not met covers anything below 1.

Look over these answered cases.
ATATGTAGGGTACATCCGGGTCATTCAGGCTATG = condition met
AGAACAAGGGCACGCTGAGTTGATAGCAGAGTAG = condition met
CGTCCAAGGTCATCGGAGGTCAGTGAAGACAGAT = condition met
ATCTCTAGGTAAAGGTAGTTCAGTGAATGCAAAT = condition not met
CGAACGAGGGCATGAGTTGATAGCCAATGCCGAT = condition met

Q: Please check the record TATCGGAGGACACGAAGGTCAGAGCTTTCCAGAG and state if its PBM binding z-score is at or above 1.
Result: condition met

Q: Please check the record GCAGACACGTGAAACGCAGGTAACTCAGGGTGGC and state if its PBM binding z-score is at or above 1.
Result: condition not met

Q: Please check the record CGTCCAAGGTCAAGGTCAGTGCAAGAGACTCGAA and state if its PBM binding z-score is at or above 1.
Result: condition met

Q: Please check the record CCTGCTGGGTCAATGGTCAGCTAAAGCAGCTCGC and state if its PBM binding z-score is at or above 1.
Result: condition met

Q: Please check the record TATACAGGGTCAAAGGCCAGAGTCCGAATGTCGA and state if its PBM binding z-score is at or above 1.
Result: condition met

Q: Please check the record TCGAGTCGGTTACCAATGGGGCATTCAGCTTTCT and state if its PBM binding z-score is at or above 1.
Result: condition not met

Q: Please check the record ATACCAAGGTGATCGTTAGGTCGTTGATACTAAC and state if its PBM binding z-score is at or above 1.
Result: condition not met

Q: Please check the record TAGCCTAGGTCATTCAGGGGCCAGTATCGAAAGC and state if its PBM binding z-score is at or above 1.
Result: condition met

Q: Please check the record TCTAATAGTTGATTAGGGCAACCGAAACAGCGGA and state if its PBM binding z-score is at or above 1.
Result: condition not met

Q: Please check the record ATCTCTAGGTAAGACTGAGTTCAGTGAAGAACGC and state if its PBM binding z-score is at or above 1.
Result: condition not met

Q: Please check the record GCTAGCAGGCCATGTGGGTCACTCAATGACGGGC and state if its PBM binding z-score is at or above 1.
Result: condition met

Q: Please check the record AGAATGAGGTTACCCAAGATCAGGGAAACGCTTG and state if its PBM binding z-score is at or above 1.
Result: condition met

Q: Please check the record TAGACTAGGTCAGATCGGGCCAGTATACGCTATA and state if its PBM binding z-score is at or above 1.
Result: condition met

Q: Please check the record ATCGAAAGGTCGACGGGGTGAGTATACACCGTTT and state if its PBM binding z-score is at or above 1.
Result: condition met

Q: Please check the record CCTTACGGGTCAAGGTTATAGCTCGGGTGGTACG and state if its PBM binding z-score is at or above 1.
Result: condition met

---

# System: PPARg homodimer (NR concentration 180 nM)
# assay text: PBM binding z-score (relative to random genomic background probes); higher = stronger binding; sequences stand for … in GC…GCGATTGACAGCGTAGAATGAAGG
endpoint: PBM binding z-score

Example sequences with recorded PBM binding z-score:
TCTGCAAGGTCAGTTGGTCAGCTAACGAGCTGCC = 1.99
ATAAGTAGGTTAAGGGTCATTCAGGTTGGTTCGC = 5.84
TCTAGTTGGTCAAAGGTCACAGACTCGAAATGCG = 5.86
ATCTCTAGGTAACCAAGTCCAGTGAATGCCGAAC = 0.614

For each of the sequences below, note its PBM binding z-score.
1. CCTACTGGGCCATTCAGATGTCATTGATCATATG
2. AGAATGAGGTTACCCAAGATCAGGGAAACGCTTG
3. CGAACTAGGTCAGAACAGGACAGTAAAGGATGAT
4. ACTAGCACGCCAAGTTTGGGTCACTCAAACAAAG
5. AGAACGAGGGCAATGACTTGATAGCACGGGTGGC
6. TGACTGAGGTTATAAGATCAGGGAACGTTGCAAA
7. CCTTACGGGTCACGAGGTTATAGCACGACGAGCG
8. CAGCCTAGGTAAGGGCCAGTATAGGAGGAACGTT

Result:
1: 0.0941; 2: 0.367; 3: 1.1; 4: 0.00723; 5: 0.348; 6: 0.479; 7: 2.37; 8: 0.0729

---

Would you mind telling me the reported PBM binding z-score of each entry?
# Tested on: FXR:RXRa (NR concentration 270 nM, RXRa partner concentration 90 nM)
# assay text: PBM binding z-score (relative to random genomic background probes); higher = stronger binding; sequences stand for … in GC…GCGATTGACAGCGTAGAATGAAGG

Example sequences with recorded PBM binding z-score:
AGAACGAGGGCAATGAGTTGATACCACGGGTGGC = 0.296
TCGAGTAGGTTACCCATGGGGCATTCAGCTTTCT = 0.292
ATATGTAGGTTACATCAGGGTCATTCAGGCTATG = 3.26
CCTCGGAGGACAGAAGGCCAGAGCTGTCCGCTTT = -0.543
ATACCAAGGTGATCGTGAGGTCGTTGTTACTAAC = 1.57

For each of the sequences below, note its PBM binding z-score.
1. TCTAGTAGATCAAGCAGGTTAAGAAAGCCTGAGT
2. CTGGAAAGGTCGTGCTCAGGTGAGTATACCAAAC
3. CCGACTGGGGCAAAAAGGTTACCATACCATCCGG
4. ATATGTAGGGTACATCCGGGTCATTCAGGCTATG
5. CCTTACGGGTCACGAGGTTATAGAACGACGAGCG
6. TCATATAGGTAAGCAGGTGAAAGTCCGTAAGTTA

Result:
1: -0.193; 2: 5.25; 3: 0.468; 4: 1.96; 5: 6.7; 6: 0.125

For each of the sequences below, note its PBM binding z-score.
1. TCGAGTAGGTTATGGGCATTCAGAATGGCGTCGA
2. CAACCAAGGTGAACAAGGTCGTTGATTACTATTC
3. GCGACTGTGGCAAAGCAGGTTACCATAAGGTTGG
4. ACTTACGGGTCAACGAGGTTGTAGCACGCGTATA
5. CAAACTAGGTCACCGGAAGGTCAAAGTGCGCATG
6. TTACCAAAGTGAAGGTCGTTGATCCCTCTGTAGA

Result:
1. -0.455
2. 1.58
3. -0.28
4. 6.76
5. 6.51
6. 2.06

For each of the sequences below, note its PBM binding z-score.
1. ATCGAAAGGTCCTGAGGTGAGTATACAGAAAGGC
2. CCTATTAGTTGACCGTAAGGGCAACCGAAGCTCG
3. CCTCGGAGGACAGAAGGTCCGAGCTGTCCGCTTT
4. CCTATAAGTTGACCATAAGGGCAACCGAAGCTCG
5. AGTCAAAGTTCACTTGGTAACGTAAGATTCAGCT
6. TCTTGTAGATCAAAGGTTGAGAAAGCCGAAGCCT

Result:
1: 0.12; 2: 1.88; 3: -0.475; 4: 1.36; 5: 4.85; 6: 0.89

---

# Test system: RARa:RXR (NR concentration 270 nM, RXRa partner concentration 90 nM)
# assay text: PBM binding z-score (relative to random genomic background probes); higher = stronger binding; sequences stand for … in GC…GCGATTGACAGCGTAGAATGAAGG
endpoint: PBM binding z-score
Give bare numbers.

Example sequences with recorded PBM binding z-score:
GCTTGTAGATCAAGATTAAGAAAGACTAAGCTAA = -0.252
CAAACTAGGTCATGAAAGGTCAAAGTCGAATGAC = 7.33
TCTCGGAGGACACGAAAGGTCAGAGTTCGACATC = 5.55
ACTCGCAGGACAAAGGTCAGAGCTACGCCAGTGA = 4.72
TAGCCTAGGTCGGATCGGGCCAGTATACGCTATA = 0.382
TTACTAAGGTGAAGGTCGTTGATCCCTCTGTAGA = 2.6
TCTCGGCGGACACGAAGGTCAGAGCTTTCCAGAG = 1.09
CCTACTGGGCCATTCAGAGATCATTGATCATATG = -0.523
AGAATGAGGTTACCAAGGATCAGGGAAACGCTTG = 2.01
CCGACTGGGGCAAGTTTACCATAACGCACAGCCA = 0.0414

Below: the item to evaluate.
Tested on RARa:RXR (NR concentration 270 nM, RXRa partner concentration 90 nM), the item TCTAGCAGTCCAGAGGGTCACTCAAGAGGTACGG showed PBM binding z-score equal to 2.48
